Each recorded value in this set is attributed to paper PMC6099841.

assay_system: salicylate synthase MbtI (Mycobacterium tuberculosis)
assay_name: biochemical
condition_notes: read-out: MbtI IC50
measured_endpoint: pIC50
Answers are plain numbers, as −log10 of the molar value.

In one line, give reported pIC50 of the entry O=C(O)c1cc(O)cc2c1C(=O)CCO2 .
4.21

* * *

assay_system: salicylate synthase MbtI (Mycobacterium tuberculosis, UniProt P9WFX1)
Sequence (P9WFX1 whole entry): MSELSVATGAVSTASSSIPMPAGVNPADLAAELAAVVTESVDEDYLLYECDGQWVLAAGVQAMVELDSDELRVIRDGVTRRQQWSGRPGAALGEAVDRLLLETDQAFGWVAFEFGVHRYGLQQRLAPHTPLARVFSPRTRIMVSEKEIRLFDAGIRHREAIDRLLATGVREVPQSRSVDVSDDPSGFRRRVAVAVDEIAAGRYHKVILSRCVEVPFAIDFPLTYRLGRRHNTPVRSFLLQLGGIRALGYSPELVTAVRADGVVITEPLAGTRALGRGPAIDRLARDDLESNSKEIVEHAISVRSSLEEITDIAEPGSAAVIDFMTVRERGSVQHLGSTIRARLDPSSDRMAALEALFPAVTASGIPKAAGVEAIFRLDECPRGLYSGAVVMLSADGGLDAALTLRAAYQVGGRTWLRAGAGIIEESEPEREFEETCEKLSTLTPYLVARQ
assay_name: biochemical
measured_endpoint: IC50 (µM)
Answers are plain numbers, in µM.

Under salicylate synthase MbtI (Mycobacterium tuberculosis, UniProt P9WFX1), report IC50 for CC=C(Oc1cccc(C(=O)O)c1O)C(=O)O
11.6
